molecular target: Phospholipase A2 from Naja mossambica mossambica; construct: IC50; other: CF-loaded liposomes, PLA2 7 nM, 37° C; other: PLA2 7 nM, gold nanoparticles 0.1 nM, liposomes 1.4 nM, 10 minutes at 37° C., Hill fit of Δλmax; lag time; assay type: biochemical; details: PLA2 7 nM, gold nanoparticles 0.1 nM, liposomes 1.4 nM, 10 minutes at 37° C., Hill fit of Δλmax
pIC50: −log10 of the molar value.
reported endpoint: pIC50

molecule="CN(C)CCCN1c2ccccc2Sc2ccc(Cl)cc21 [chlorpromazine]" result_value=5.19

* * *

biological target: Phospholipase A2 from Naja mossambica mossambica; construct: IC50; other: CF-loaded liposomes, PLA2 7 nM, 37° C; other: PLA2 7 nM, gold nanoparticles 0.1 nM, liposomes 1.4 nM, 10 minutes at 37° C., Hill fit of Δλmax; lag time; assay: traditional carboxyfluorescein (CF)-based fluorescence assay with CF-loaded liposomes; assay type: biochemical; details: PLA2 7 nM, 37° C.
pIC50: −log10 of the molar value.
reported endpoint: pIC50

mol_smiles=CN(C)CCCN1c2ccccc2Sc2ccc(Cl)cc21 result_value=5.00
